// reported pIC50 per item
Molecular target: Amine oxidase [flavin-containing] A (Homo sapiens, UniProt P21397)
Assay: Inhibition of recombinant human MAOA using kynuramine as substrate assessed as decrease in formation of 4-hydroxyquinoline incubated for 20 mins by fluorescence assay
pIC50: −log10 of the molar value.
METRIC NAME: pIC50

STRUCTURE SMILES STRING | RECORDED NUMBER
C#CCN1C(=O)C(=O)c2cc(S(=O)(=O)N(C)Cc3cccc(F)c3)ccc21 | 4.97
C#CCN1C(=O)C(=O)c2cc(S(=O)(=O)N(C)Cc3ccccc3F)ccc21 | 5.03
CN(Cc1ccc(F)cc1)S(=O)(=O)c1ccc2c(c1)C(=O)C(=O)N2 | 5.08

###

// reported pKi per item
Target: Amine oxidase [flavin-containing] A (Homo sapiens)
Sequence (P21397 whole entry): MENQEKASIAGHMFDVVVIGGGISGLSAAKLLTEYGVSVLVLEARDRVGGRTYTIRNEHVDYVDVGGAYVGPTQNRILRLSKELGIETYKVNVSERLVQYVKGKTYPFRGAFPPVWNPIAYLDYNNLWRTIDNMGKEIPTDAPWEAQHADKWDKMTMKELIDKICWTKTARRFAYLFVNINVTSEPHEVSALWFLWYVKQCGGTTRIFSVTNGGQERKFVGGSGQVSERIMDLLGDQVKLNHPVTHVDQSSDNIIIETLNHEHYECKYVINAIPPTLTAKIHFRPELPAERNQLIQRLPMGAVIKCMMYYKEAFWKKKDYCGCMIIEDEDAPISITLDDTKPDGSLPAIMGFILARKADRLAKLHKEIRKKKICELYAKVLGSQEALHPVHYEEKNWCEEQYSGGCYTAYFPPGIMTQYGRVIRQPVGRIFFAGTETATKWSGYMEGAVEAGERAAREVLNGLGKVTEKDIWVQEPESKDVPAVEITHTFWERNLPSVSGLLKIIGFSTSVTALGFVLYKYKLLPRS
Experiment: Inhibition of recombinant human MAOA using kynuramine as substrate assessed as decrease in formation of 4-hydroxyquinoline incubated for 20 mins by fluorescence assay
pKi: −log10 of the molar value.

STRUCTURE SMILES STRING | pKi
CN(Cc1ccc(F)cc1)S(=O)(=O)c1ccc2c(c1)C(=O)C(=O)N2 | 5.66
C#CCN1C(=O)C(=O)c2cc(S(=O)(=O)N(C)Cc3ccc(F)cc3)ccc21 | 5.94
CN(Cc1ccccc1F)S(=O)(=O)c1ccc2c(c1)C(=O)C(=O)N2 | 5.24
C#CCN1C(=O)C(=O)c2ccccc21 | 5.09
